Target: B. subtilis Pol IIIC (Bacillus subtilis, UniProt P13267)
Construct: made in house
Sequence (P13267 whole entry): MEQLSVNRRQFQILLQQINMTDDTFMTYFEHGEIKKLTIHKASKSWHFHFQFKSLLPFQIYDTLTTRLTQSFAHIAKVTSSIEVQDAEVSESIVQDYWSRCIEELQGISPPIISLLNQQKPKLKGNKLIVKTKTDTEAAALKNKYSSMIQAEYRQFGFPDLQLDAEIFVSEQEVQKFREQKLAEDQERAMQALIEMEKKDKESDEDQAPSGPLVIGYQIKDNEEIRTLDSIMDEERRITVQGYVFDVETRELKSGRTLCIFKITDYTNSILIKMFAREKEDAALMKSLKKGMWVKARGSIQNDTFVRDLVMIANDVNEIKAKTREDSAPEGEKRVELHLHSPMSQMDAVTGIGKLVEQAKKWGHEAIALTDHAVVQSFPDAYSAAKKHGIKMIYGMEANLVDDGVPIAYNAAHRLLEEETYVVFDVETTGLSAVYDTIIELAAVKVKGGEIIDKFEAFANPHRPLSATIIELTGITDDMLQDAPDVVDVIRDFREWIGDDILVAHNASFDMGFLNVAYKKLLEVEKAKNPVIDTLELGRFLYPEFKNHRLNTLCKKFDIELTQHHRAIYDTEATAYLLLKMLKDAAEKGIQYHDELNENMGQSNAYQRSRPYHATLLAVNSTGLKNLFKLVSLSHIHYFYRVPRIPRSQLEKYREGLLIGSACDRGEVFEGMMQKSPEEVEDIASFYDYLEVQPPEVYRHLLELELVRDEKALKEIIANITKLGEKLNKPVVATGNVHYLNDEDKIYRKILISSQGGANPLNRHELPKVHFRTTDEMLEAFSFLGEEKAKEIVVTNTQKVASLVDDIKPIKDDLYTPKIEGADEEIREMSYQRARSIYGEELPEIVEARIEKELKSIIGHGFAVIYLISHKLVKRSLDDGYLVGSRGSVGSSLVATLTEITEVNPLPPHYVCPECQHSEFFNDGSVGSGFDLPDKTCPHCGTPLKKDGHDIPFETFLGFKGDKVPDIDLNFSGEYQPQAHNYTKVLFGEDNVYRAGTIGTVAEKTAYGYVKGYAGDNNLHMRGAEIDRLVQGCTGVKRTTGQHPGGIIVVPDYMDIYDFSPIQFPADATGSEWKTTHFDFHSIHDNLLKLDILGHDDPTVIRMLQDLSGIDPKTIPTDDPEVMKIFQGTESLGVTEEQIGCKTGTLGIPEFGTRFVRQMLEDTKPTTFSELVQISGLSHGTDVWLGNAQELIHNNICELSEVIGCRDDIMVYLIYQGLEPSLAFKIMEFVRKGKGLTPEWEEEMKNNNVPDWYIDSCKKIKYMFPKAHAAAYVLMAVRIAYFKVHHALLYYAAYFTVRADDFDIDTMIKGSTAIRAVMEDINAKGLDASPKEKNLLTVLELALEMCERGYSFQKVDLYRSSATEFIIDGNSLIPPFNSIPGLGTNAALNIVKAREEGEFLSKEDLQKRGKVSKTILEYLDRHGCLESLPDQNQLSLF
Test: Polymerase IIIC (Pol IIIC) assay, determination of Ki values
Type: biochemical
Details: Ki = concentration that reduces control polymerase activity by 50 percent
parameter: Ki (µM)
Express it in µM; write the number only.

Record CCc1cc(Nc2cc(=O)n(CCCCO)c(=O)[nH]2)ccc1C [HB-EMAU, reference compound] , field Ki: 0.066

----------
Target: B. subtilis Pol IIIC (Bacillus subtilis)
Construct: made in house
Assay: Polymerase IIIC (Pol IIIC) assay, determination of Ki values
Type: biochemical
Details: second table; Ki = concentration that reduces control polymerase activity by 50 percent
parameter: Ki (µM)
All answers are understood in µM, so give the number only.

Value of Ki reported for the compound `CCc1cc(Nc2ccc(NC(=O)N3CCN(c4cc5c(cc4F)c(=O)c(C(=O)O)cn5CC)CC3)c(=O)[nH]2)ccc1C` is 8

Sourced from patent US6777420B2
